- study_target: LBP (leucine-binding protein) (Escherichia coli, UniProt P04816)
- Sequence (P04816 24-369): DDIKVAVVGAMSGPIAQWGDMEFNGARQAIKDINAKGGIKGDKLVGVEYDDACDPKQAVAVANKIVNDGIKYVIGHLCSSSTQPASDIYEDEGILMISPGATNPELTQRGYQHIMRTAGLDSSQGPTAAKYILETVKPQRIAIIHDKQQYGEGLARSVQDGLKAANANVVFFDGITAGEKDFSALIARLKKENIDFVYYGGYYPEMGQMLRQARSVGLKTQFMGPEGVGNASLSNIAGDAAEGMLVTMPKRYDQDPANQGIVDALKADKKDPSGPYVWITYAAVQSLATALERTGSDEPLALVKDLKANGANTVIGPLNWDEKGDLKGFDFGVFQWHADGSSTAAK
pKd: −log10 of the molar value.
attribute_measured: pKd

smiles_entry=CC(C)C[C@H](N)C(=O)O attribute_measured=pKd numeric_value=7.07
